Biological target: Hexose transporter 1 (Plasmodium falciparum)
Test: ST_JUDE_LEISH: Cytotoxicity at 2uM final concentration against transgenic Leishmania Mexicana promastigotes LmPfHT that are glucose transport deficient and complemented with the Plasmodium falciparum hexose transporter. Activity is measured by DNA content using SYBR green in vitro
Assay type: functional
Experimental endpoint: inhibition (%)
Express it in %; write the number only.

CCCC(=O)c1cnc2c(Oc3cc(Cl)ncn3)cccc2c1Nc1ccccc1C: 4.84
N=C(N)NN=Cc1cc([N+](=O)[O-])ccc1Sc1ccccc1CO: 1.61

Exam item: State inhibition on Hexose transporter 1 (Plasmodium falciparum). Entry: "CN1CCC(OC(=O)c2cc3cc(-c4ccccc4)ccc3n2S(=O)(=O)c2ccccc2)CC1"
Marked response: 0.71
